# test.system: Replicase polyprotein 1ab (Severe acute respiratory syndrome coronavirus 2, UniProt P0DTD1)
readout.label: IC50
The reply should consist of the numeric value with the unit placed after it.

Bench note: what IC50 did Cn1sc(=O)n(Cc2ccccc2)c1=O show?
2500 nM

----------
# test.description: Cytotoxicity against human HEK293T cells
# Type: toxicity, cell-based, HEK-293T
readout.label: CC50

Bench note: what CC50 did CN1CCN(C(=O)N[C@@H](Cc2ccccc2)C(=O)N[C@H](/C=C/S(=O)(=O)c2ccccc2)CCc2ccccc2)CC1 show?
> 10 µM

----------
# test.system: Procathepsin L (Homo sapiens, UniProt P07711)
# Sequence (P07711 whole entry): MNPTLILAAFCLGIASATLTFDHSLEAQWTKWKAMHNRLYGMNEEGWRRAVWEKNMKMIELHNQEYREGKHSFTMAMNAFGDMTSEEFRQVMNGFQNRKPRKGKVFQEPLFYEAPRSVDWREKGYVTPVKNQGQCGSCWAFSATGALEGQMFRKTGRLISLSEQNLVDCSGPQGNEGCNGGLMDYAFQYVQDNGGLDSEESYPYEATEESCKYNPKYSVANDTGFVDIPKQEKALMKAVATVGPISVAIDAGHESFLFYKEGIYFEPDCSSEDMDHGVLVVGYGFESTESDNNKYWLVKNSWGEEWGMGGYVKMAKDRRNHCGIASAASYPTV
# test.description: Inhibition of recombinant Cathepsin L (unknown origin) using Z-Phe-Arg-AMC as substrate by fluorometric assay
readout.label: IC50 (µM)
The answer is to be given in µM; state only the numeric part.

# get_value(readout= IC50, system= Procathepsin L (Homo sapiens, UniProt P07711)) for C/C(=N\NC(N)=S)c1cccs1
5.33
